# credit: paper PMC6472409

Molecular target: T1, PDZ domain of human DVL2 wild type (aa 265–361) (human, UniProt O14641 265-361)
T1 chain: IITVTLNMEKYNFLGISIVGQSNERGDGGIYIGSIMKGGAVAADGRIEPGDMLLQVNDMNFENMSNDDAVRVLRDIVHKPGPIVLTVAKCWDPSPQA
Assay: NMR
pKd: −log10 of the molar value. [ ]: non-standard residue; d: D form. pS = N[C@@H](COP(=O)(O)O)C(=O)O

- binder: "H-RQ[pS]FRMAMGNPSEFFVDVM-OH (peptide, UniProt Q92997 698-716, looked up, Dishevelled-3, human, C-terminal aa 698-716; the last seven residues are printed as EFFVDIM; also called DVL C-terminal peptide; C-terminal DVL peptide (pS700); source: synthetic peptide, bought: KareBay Biochem) [phosphorylated (pS700) C-terminal peptide derived from DVL3 (aa 698–716)]"
  pKd: 3.53
